study system: Cytochrome P450 2D6 (Homo sapiens)
measurement notes: Cytochrome panel assay with activity outcomes
particulars: recombinant CYP, pro-luciferin dealkylation, luminescence, p450-cyp2d6; series mostly up to 57.1 µM
In all, about 16,000 compounds went through this assay and about 2,600 (16%) were called active. Inconclusive results (about 20%) are left out. Calls come from the whole dose curve; as a rule, active = well fitted curve in the direction sought with a large enough effect; inconclusive = small, poorly fitted or top-dose-only effect, or effect the other way; inactive = no such curve, though single readings can be large or run the other way. Not all results are given here.
Outcome codes: active, inactive

COc1ccc(Cc2nnc(NC(=O)c3cccc([N+](=O)[O-])c3C)s2)cc1; inactive
O=C(c1ccncc1)N1CCC2(CC1)CCN(c1ccccc1)CC2; inactive
CC(C)NC(=O)N1CC2(CCN(C(=O)c3ccncc3)CC2)C1; inactive
CCN(CC)CCCCCCCCOC(=O)c1cc(OC)c(OC)c(OC)c1; active
CCC(O)CNc1nc(-n2nc(C)cc2C)nc2sc3c(c12)CC(C)(C)OC3 (configuration not stated); inactive
O=S(=O)(c1ccccc1)c1cnn2c(C(F)(F)F)cc(-c3ccccc3)nc12; inactive
CCc1ccc(N2CC(C)Cn3c2nc2c3c(=O)n(CCN3CCOCC3)c(=O)n2C)cc1 (configuration not stated); inactive
COc1cccc(Cn2c(NCc3cccnc3)nc3c2c(=O)n(C)c(=O)n3C)c1; inactive
Cc1c(-c2ccc(O)cc2)nn(-c2ccc(O)cc2)c1-c1ccc(OCCN2CCCCC2)cc1; inactive
CCOC(=O)C1=C(O)/C(=C/c2cc(OC)c(OC)c(OC)c2)N=C1C; inactive
Cn1c(=O)[nH]c(=O)c2c1nc(NCCCO)n2CCCc1ccccc1; inactive
CCOc1ccc(NC(=O)Cn2nnc(C(=O)NCc3ccccc3OC)c2N)cc1; inactive
O=C(c1ccncc1)N1CCC2(CC1)CN(c1ccc(-c3ccccc3)cc1)C2; inactive
CCCSc1nc(NCc2ccco2)c2c3c(sc2n1)COC(C)(C)C3; active
Cc1ccc(-c2ccc(CCC(=O)O)o2)cc1; inactive
O=C(c1ccncc1)N1CCC2(CC1)CN(c1ccccc1)C2; active
CCN(CC)CCOC(=O)c1cc(Cl)c(N)cc1OC; active
O=C(c1ccncc1)N1CCC[C@@]2(CCN(c3ncccn3)C2)C1; inactive
COc1cc(C(=O)OCC(=O)Nc2cc(C)on2)cc(OC)c1OC; inactive
Cc1n[nH]c(C)c1S(=O)(=O)N1CCC(C(=O)O)CC1; inactive
O=C(c1ccncc1)N1CCC[C@@]2(CCN(c3ccccc3)C2)C1; inactive
CCN(CC)CCNC(=O)c1ccc(Cl)c(S(=O)(=O)Nc2ccccc2OC)c1; inactive

====

study system: Cytochrome P450 2D6 (Homo sapiens) (UniProt P10635)
Sequence (P10635 whole entry, looked up): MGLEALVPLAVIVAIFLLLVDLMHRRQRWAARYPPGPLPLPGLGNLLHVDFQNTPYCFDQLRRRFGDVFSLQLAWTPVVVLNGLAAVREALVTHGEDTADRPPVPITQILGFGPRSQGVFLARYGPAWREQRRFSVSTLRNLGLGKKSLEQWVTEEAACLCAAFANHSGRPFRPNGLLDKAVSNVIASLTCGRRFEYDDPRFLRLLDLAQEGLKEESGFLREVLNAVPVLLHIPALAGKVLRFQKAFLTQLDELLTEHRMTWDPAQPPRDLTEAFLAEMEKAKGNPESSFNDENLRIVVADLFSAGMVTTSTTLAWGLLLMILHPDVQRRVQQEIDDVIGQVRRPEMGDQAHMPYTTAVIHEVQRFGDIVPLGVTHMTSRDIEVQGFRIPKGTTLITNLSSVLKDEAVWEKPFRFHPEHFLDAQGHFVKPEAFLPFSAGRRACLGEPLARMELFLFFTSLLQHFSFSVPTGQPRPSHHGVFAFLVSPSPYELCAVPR
measurement notes: Cytochrome panel assay with activity outcomes
particulars: recombinant CYP, pro-luciferin dealkylation, luminescence, p450-cyp2d6; series mostly up to 57.1 µM
About 2,600 (16%) of roughly 16,000 compounds were called active. Roughly 20% stayed inconclusive and do not appear here. The call rests on the fitted dose curve; in most records, active means well fitted curve in the direction sought with a large enough effect; inconclusive means small, poorly fitted or top-dose-only effect, or effect the other way; inactive means no such curve, though single readings can be large or run the other way. Only a sample is shown.
Possible outcomes: active, inactive

COC(=O)N1CCC2(CCCN(C(c3ccccc3)c3ccccc3)C2)CC1; active
COc1cccc(C2=NOC(C(=O)Nc3ccc(OC)c(OC)c3)C2)c1 (centres undefined); inactive
CCC/C=C(\CCC)C(NC(=O)OCC(C)C)c1ccc(C(=O)OC)cc1 (centres undefined); inactive
COc1cc(/C=N/O)cc(Br)c1OCc1cccc(Cl)c1; inactive
CCC/C=C(\CCC)C(NC(=O)c1ccc(C(F)(F)F)cc1)c1ccccc1 (centres undefined); active
COCCNC(=O)C1CC(c2cccc(OC)c2)=NO1 (centres undefined); inactive
COc1ccc2[nH]cc(CCNc3ncnc4ccc(-c5ccccc5C#N)cc34)c2c1; active
CCC/C=C(\CCC)C(NS(=O)(=O)c1cccs1)c1ccc(C(=O)OC)cc1 (centres undefined); active
O=C(c1cc(C(F)(F)F)cc(C(F)(F)F)c1)N1CCC2(CC1)CN(c1ccncc1)C2; inactive
COc1ccc2[nH]cc(CCNc3ncnc4ccc(-c5ccccc5CN(C)C)cc34)c2c1; active
O=C(O)c1cccc(N2CCCC2=O)c1; active
O=C(c1cc(C(F)(F)F)cc(C(F)(F)F)c1)N1CCC[C@@]2(CCN(c3ccncc3)C2)C1; inactive
O=C(c1cccc(F)c1)N1CCC[C@@]2(CCN(c3ccncc3)C2)C1; inactive
COC(=O)N1CCC2(CC1)CCN(c1ccccc1)CC2; inactive
O=C(NCc1ccc2c(c1)OCO2)C1CC(c2cccc(Br)c2)=NO1 (centres undefined); active
CCC/C=C(\CCC)C(NS(=O)(=O)c1cccc2cccnc12)c1ccc(C(=O)OC)cc1 (centres undefined); inactive
CC1(C)CCC=[N+]1[O-]; inactive
COc1ccc(CNC(=O)C2CSC(=O)C2)cc1 (centres undefined); inactive
CCC/C=C(\CCC)C(NS(=O)(=O)c1ccc(C(F)(F)F)cc1)c1ccc(C(=O)OC)cc1 (centres undefined); inactive
O/N=C/c1cc(Cl)ccc1OCc1cccc2ccccc12; active
CCC/C=C(\CCC)C(NC(=O)c1ccc(C(F)(F)F)cc1)c1ccc(C(F)(F)F)cc1 (centres undefined); inactive
COc1cccc(C2=NOC(C(=O)Nc3cccnc3)C2)c1 (centres undefined); active
CC(NC(=O)c1ccc(N2CCCC2=O)cc1)c1ccccc1 (centres undefined); active
COC(=O)[C@H]1C[C@@H]1[C@H](NC(=O)Oc1ccc(F)cc1)c1ccccc1; inactive
COC(=O)N1CCC2(CC1)CN(c1ccc(-c3ccccc3)cc1)C2; inactive
CC1=CC(=O)N(c2cccc(C(F)(F)F)c2)C1c1ccc(Cl)cc1 (centres undefined); active
Nc1ccc(N2CCN(C(=O)c3ccco3)CC2)cc1; inactive
O=C(NNC(=O)C1CC(c2cccnc2)=NO1)Nc1cccc(F)c1 (centres undefined); inactive
COC(=O)N1CCC2(CC1)CN(c1ccccc1)C2; inactive
COc1ccc2nc(N3C(=O)CC(Cc4ccc(Cl)cc4)C3=O)sc2c1 (centres undefined); inactive
CCC/C=C(\CCC)C(NC(=O)c1cccs1)c1ccc(C(=O)OC)cc1 (centres undefined); inactive
Cc1nc(SCC(=O)Nc2ccc(N3CCOCC3)cc2)nc(C)c1C; inactive
COc1ccc2[nH]cc(C=O)c2c1; inactive
COC(=O)N1CCC2(CC1)CN(C(=O)Nc1ccccc1)C2; inactive
C[C@@H](C(=O)Nc1ccc2ccccc2c1)[C@H]1C[C@]1(C)[C@H](NC(=O)Oc1ccc(F)cc1)c1ccccc1; active
COC(=O)N1CCC2(CCCN(c3ccc(-c4ccccc4)cc3)C2)CC1; inactive
O=C(c1cc(C(F)(F)F)cc(C(F)(F)F)c1)N1CCC2(CC1)CCN(c1ccncc1)CC2; active
NCCCCCCCCCCN; inactive
CC(=O)N1CCC2(CCCN(C(c3ccccc3)c3ccccc3)C2)CC1; active
COc1cccc(C2=NOC(C(=O)NCCN3CCOCC3)C2)c1 (centres undefined); inactive
COC(=O)N1CCC2(CC1)CN(C(c1ccccc1)c1ccccc1)C2; active
COc1ccc2[nH]cc(CCNc3cc(-c4ccccc4OC)ncn3)c2c1; active
Nc1cc(N)nc(SCC(=O)NNC(=O)c2ccc(Cl)cc2)n1; inactive
CN1CCN(CCCNC(=O)C2CCN(c3nnc(-n4cccc4)s3)CC2)CC1; inactive

====

study system: Cytochrome P450 2D6 (Homo sapiens)
measurement notes: Cytochrome panel assay with activity outcomes; for activity, negative = inhibition: % is set by controls: 0 for no effect and ±100 for the full control effect
particulars: recombinant CYP, pro-luciferin dealkylation, luminescence, p450-cyp2d6; series mostly up to 57.1 µM
The campaign covered roughly 16,000 compounds. About 2,600 (16%) were called active. Inconclusive results (about 20%) are left out. The list is a sample of the results.
Below, each entry is listed with its recorded activity, negative = inhibition.
measured parameter: activity, negative = inhibition

COc1cc2nncc(SCc3ccc(Cl)c(Cl)c3)c2cc1OC; 1.56% [at 11.4 µM] (inactive)
Cc1[nH]c(N)nc(=S)c1CCCNc1ccccc1; -8.46% [at 11.4 µM] (inactive)
N#C[C@H]1CN[C@H](N)N[C@@H]1N; 8.31% [at 11.4 µM] (inactive)
CO[C@H]1COC(=O)[C@@H](Cc2ccccc2)NC(=O)[C@@H](C)COC(=O)C/C=C\[C@@H]1C; 2.58% [at 11.4 µM] (inactive)
CCCCOC(OCCCC)[C@H](O)CSc1ccc2ccccc2c1; -15.8% [at 11.4 µM] (inactive)
c1ccc(/C(=N/Nc2nc3ccccc3s2)c2ccccn2)cc1; -1.95% [at 11.4 µM] (inactive)
Cc1ccc(N=Nc2ccc(N)cc2C)c(S(N)(=O)=O)c1; 3.5% [at 11.4 µM] (inactive)
NC(N)=NC(N)=Nc1ccc(S(N)(=O)=O)cc1; 4.99% [at 11.4 µM] (inactive)
O=C1C[C@H]2C(=O)[C@@H]1[C@@H](C(=O)O)[C@H]2C(=O)O; 11.5% [at 11.4 µM] (inactive)
c1ccc2c(c1)-c1nc3ccccc3cc1[C@H]2N1CCOCC1; -4.83% [at 11.4 µM] (inactive)
Nc1nc(N)c2[nH]cnc2n1 (tested in a mixture with another compound); -4.07% [at 11.4 µM] (inactive)

The origin of these recorded values is PubChem BioAssay AID1851.
